# system: FGFR1 (Homo sapiens)
# Construct: purchased Cama (sic; Carna) 08-133
# Sequence (P11362 22-822): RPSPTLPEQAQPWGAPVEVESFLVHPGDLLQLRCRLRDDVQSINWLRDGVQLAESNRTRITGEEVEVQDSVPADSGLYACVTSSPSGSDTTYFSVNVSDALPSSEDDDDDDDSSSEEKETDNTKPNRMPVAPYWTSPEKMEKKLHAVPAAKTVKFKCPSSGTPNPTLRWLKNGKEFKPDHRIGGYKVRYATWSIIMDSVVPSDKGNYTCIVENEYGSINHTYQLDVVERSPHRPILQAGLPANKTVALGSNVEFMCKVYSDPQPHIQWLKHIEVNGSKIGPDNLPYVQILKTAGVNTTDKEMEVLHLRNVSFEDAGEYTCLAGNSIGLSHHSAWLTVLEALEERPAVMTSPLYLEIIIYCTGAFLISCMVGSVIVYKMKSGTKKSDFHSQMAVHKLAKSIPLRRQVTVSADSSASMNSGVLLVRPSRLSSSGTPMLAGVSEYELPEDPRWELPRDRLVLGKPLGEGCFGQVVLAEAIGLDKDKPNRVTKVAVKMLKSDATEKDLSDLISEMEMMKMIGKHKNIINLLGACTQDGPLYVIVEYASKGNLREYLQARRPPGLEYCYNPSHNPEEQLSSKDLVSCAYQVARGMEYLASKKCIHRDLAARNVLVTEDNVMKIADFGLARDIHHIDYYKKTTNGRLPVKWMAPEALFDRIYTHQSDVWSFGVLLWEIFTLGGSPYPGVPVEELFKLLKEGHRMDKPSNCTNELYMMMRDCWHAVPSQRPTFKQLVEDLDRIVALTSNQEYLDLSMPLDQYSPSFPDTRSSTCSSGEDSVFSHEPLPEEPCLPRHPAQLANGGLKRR
# test.summary: Enzymatic activity test of FGFR inhibitor, Caliper model
# Format: biochemical
# recorded.conditions: Caliper, kinase pre-incubation 10 minutes; read-out: FGFR1
The label is MET for IC50 below 3 nM and NOT MET for IC50 equal to or exceeding 3 nM.

Examples with answers:
1. C=CC(=O)Nc1cc(OCCC(F)(F)F)ccc1C(=O)Nc1cc(CCc2cc(OC)cc(OC)c2)n[nH]1 [Compound 9] | NOT MET
2. C=CC(=O)Nc1cc(N2CCC(F)(F)CC2)ccc1C(=O)Nc1cc(CCc2cc(OC)cc(OC)c2)n[nH]1 [Compound 7] | MET
3. C=CC(=O)Nc1cc(N2CCN(CC(F)(F)C(F)(F)F)CC2)ccc1C(=O)Nc1cc(CCc2cc(OC)cc(OC)c2)n[nH]1 [Compound 14] | NOT MET

Is it true that IC50 reported for C=CC(=O)Nc1cc(N2CCN(CCC(F)(F)F)CC2)c(OC)cc1C(=O)Nc1cc(CCc2cc(OC)cc(OC)c2)n[nH]1 [Compound 10] is less than 3 nM? NOT MET

Is it true that IC50 reported for C=CC(=O)Nc1cc(N2CCN(CC(F)(F)F)CC2)ccc1C(=O)Nc1cc(CCc2cc(OC)cc(OC)c2)n[nH]1 [Compound 2] is less than 3 nM? NOT MET

Is it true that IC50 reported for C=CC(=O)Nc1cc(N2CCC(F)(F)C2)ccc1C(=O)Nc1cc(CCc2cc(OC)cc(OC)c2)n[nH]1 [Compound 8] is less than 3 nM? MET

Is it true that IC50 reported for C=CC(=O)Nc1cc(N2CCN(CCC(F)(F)F)C(C)C2)ccc1C(=O)Nc1cc(CCc2cc(OC)cc(OC)c2)n[nH]1 (stereo not shown) [Compound 12] is less than 3 nM? MET

###

# system: FGFR2 (Homo sapiens)
# Sequence (P21802 22-821): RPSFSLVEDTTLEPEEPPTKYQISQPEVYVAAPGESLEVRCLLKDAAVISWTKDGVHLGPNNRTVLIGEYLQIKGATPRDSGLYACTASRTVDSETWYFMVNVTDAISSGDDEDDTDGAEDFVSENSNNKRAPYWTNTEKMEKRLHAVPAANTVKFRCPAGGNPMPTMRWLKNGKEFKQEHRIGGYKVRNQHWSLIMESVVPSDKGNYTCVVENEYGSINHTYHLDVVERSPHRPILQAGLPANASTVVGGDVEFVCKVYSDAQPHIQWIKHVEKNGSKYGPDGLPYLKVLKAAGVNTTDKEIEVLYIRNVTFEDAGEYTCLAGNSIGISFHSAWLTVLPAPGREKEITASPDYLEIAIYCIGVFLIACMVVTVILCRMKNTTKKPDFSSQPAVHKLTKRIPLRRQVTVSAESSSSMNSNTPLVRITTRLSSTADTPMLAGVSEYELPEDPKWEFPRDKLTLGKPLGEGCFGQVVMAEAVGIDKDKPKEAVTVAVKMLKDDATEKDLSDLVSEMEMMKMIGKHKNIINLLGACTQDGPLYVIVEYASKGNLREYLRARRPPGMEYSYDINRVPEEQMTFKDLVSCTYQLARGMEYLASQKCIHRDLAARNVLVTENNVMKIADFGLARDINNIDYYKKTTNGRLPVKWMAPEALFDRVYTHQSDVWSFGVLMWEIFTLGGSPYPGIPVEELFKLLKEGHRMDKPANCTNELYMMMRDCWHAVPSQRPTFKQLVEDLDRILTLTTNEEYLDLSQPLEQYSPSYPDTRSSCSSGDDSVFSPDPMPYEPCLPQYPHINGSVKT
measurement.type: pIC50
Answers are plain numbers, as −log10 of the molar value.

1. C=CC(=O)Nc1cc(N2CCN(CC(F)(F)C(F)(F)F)CC2)ccc1C(=O)Nc1cc(CCc2cc(OC)cc(OC)c2)n[nH]1 | 8.23
2. C=CC(=O)Nc1cc(N2CCN(CCC(F)(F)F)CC2)ccc1C(=O)Nc1cc(CCc2cc(OC)cc(OC)c2)n[nH]1 | 8.74
3. C=CC(=O)Nc1cc(N2CCC(F)(F)CC2)ccc1C(=O)Nc1cc(CCc2cc(OC)cc(OC)c2)n[nH]1 | 8.47
4. C=CC(=O)Nc1cc(N2CCN(CC(F)F)CC2)ccc1C(=O)Nc1cc(CCc2cc(OC)cc(OC)c2)n[nH]1 | 8.28
5. C=CC(=O)Nc1ccccc1C(=O)Nc1cc(CCc2cc(OC)cc(OC)c2)[nH]n1 [Control a, reference compound] | 8.66

Give pIC50 for all compounds that follow.
1. C=CC(=O)Nc1cc(N(C)CCC(F)(F)F)ccc1C(=O)Nc1cc(CCc2cc(OC)cc(OC)c2)n[nH]1
2. C=CC(=O)Nc1cc(N2CCN(CCC(F)(F)F)CC2)c(OC)cc1C(=O)Nc1cc(CCc2cc(OC)cc(OC)c2)n[nH]1
3. C=CC(=O)Nc1cc(N2CC(F)(F)C2)ccc1C(=O)Nc1cc(CCc2cc(OC)cc(OC)c2)n[nH]1

1. 8.31
2. 8.21
3. 8.64
